Test system: K4 kissing-loop RNA reporter
Assay: apparent KD of K4 kissing-loop reporter; higher = weaker reporter binding
Details: Eterna round: R107; input ligand: FMN 200 uM
resultType: apparent KD of K4 kissing-loop reporter (nM)
Provide only the numeric value, understood in nM.

Completed entries (count: 3):
# seqString, apparent KD of K4 kissing-loop reporter, nM
rows = [
    ("AAGCAGUCACUCGACGCCAUCGAAGAUGGGCGAGGACCGGUACGGCCGCCACUCGGAGUGAUGUUCUGAUGACUGCAAAAUAAAA [MatMod 8 - Jieux - Exclusion - Tryptophan A]", 119),
    ("GAUUGAGUGAUGUUCAAUUAGUAUCUAGAUACCAGAAUGUCUACCUUCCCUUGGCAGCUACUGACGGUGAUCAUUUCGCGCGCAG [theeternabot_sameState_KL_Theo_A_19]", 235),
    ("GUGGUGGUGGCGGCCGCCACUGAAGAUAAUGAGUGAUGUUCAAGUGAUGUUAAUAAGAACAGUAUCAGGACCGGGCCACCACCAC [Default title]", 37.5),
]

What measured apparent KD of K4 kissing-loop reporter goes with UUAGAGAUCUCAGGAUAUCAGUGAUGUUGGUUUCCAGAUCUGAGAUAGAAUUCUAUCUCAGAUCAAUGAGAAGGGAGAUCUCAUU [AK4.1 Exc FMN B] ?
535

Which measured apparent KD of K4 kissing-loop reporter value corresponds to CAUAGGAAACUAUGUUUCUCUCUUACUGAAGGAGCGCGUGAAAACGCAGGUAGGUCGCAGAAUUUGAGAGUGAUGUUCUCAUUAA [Ex Arginine A K4 14] ?
119

Could you share which apparent KD of K4 kissing-loop reporter value was measured for CGCUUUGCGUCCGGUAGUGAUGUUACCAAGCGAGGACCGGUACGGCCGCCACUCGAGUGACAGACGUACUGGUAUCACCCGCUUU ?
223

----------
Tested on: K4 kissing-loop RNA reporter;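 note: bound reporter read as fluorescence of individual clusters on recovered sequencing chips by microscopy, with normalized cluster intensities fitted with a binding model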
Test: apparent KD of K4 kissing-loop reporter; higher = weaker reporter binding
Conditions: Eterna round: R107; input ligand: arginine 13.2 mM
// reported apparent KD of K4 kissing-loop reporter per item
Please give a number only; it is taken to be in nM.

Consider the following illustrative entries.
# seqString, unitText, observedMeasurement
data = [
    ("AAUUAAUACAGAAGGAGCGUGUAUUUAACUACAAUUAUCUUAGCGAGUGAUGUUCGUUUUACACAGGUAGGUCGCUGUAUAUUUA [JR_ExcArginiB_Sub010]", "nM", 279),
    ("ACGGAUACGCGAGAUACCAGAGGCAUUCGCCAGCGACCAUAAUGUCCCGAGAGUGAUGUUCUCCCUUGGCAGCUCAUGGUUAAUU [theeternabot_exclusion_KL_Theo_B_2]", "nM", 400),
    ("UACUAUAUUCUGUCGUUUAUAUUAUUUUGUCAGGAUAUCGUUUAUUCGAGAAGGGACACUAUCUAGUGAUGUUAGAUUUUUCUUU [JR_Nu_ExcFMNA_Sub029]", "nM", 130),
]

Would you kindly look at the next entry?
Would you mind telling me what apparent KD of K4 kissing-loop reporter value was observed for ACGUCUCGUAAACUCGUGGUUUCGAUCGAUACCAGUAGCGAGAGUUACCCUUGGCAGCGACAUGAGUGAUGUUCAUGUACGAAGA [KL-XTheoA2] ?
88.5
